# maps each entry to its Ki
molecular target: κ opioid receptor (Homo sapiens (Human), UniProt P41145); assay: κ-opioid receptor radioligand dose-displacement binding assay (HEK); conditions: HEK cells; [3H]-U69,593
Form entry: value (nM) — number only.

CCN1C(=O)C[C@@H]2C[C@@]3(O)[C@H]4Cc5ccc(O)cc5[C@@]3(CCN4CC3CC3)C[C@@H]21 = 0.31
O=C1C[C@@H]2C[C@@]3(O)[C@H]4Cc5ccc(O)cc5[C@@]3(CCN4CC3CC3)C[C@@H]2N1 = 0.16
O=C1C=C2C[C@@]3(O)[C@H]4Cc5ccc(O)cc5[C@@]3(CCN4CC3CC3)CC2N1 (some centres unmarked) = 2.16

[in] State recorded Ki with κ opioid receptor (Homo sapiens (Human), UniProt P41145), entry O=C1C[C@@H]2C[C@@]3(O)[C@H]4Cc5ccc(O)cc5[C@@]3(CCN4CCc3ccccc3)C[C@@H]2N1 , no comment.
[out] 4.03

[in] Write Ki of COc1ccc2c(c1)[C@]13CCN(CC4CC4)[C@H](C2)[C@]1(O)C[C@H]1CC(=O)N[C@H]1C3 ; system used: κ opioid receptor (Homo sapiens (Human), UniProt P41145)
[out] 12.4

---

Target: μ-opioid receptor (Homo sapiens (Human))
Assay: μ-opioid receptor [35S]GTPγS functional assay (HEK)
Assay type: biochemical
Description: [^35S]GTPγS functional assays were conducted using freshly thawed μ-receptor membranes prepared in-house from a cell line expressing recombinant μ opioid receptor in a HEK-293, CHO or U-2 OS cell background, or purchased from a commercial source (Perkin Elmer, Shelton, Conn.; or DiscovRx, Fremont, Calif.). […] BetaScint scintillation cocktail (Perkin Elmer, Shelton, Conn.) was added (50 μl/well) and plates were counted using a Packard Top-Count for 1 min/well. […]
Value type: pEC50
Notebook: values listed as pEC50 are -log10 of the concentration (mol/L).

A selection of reference data follows.
O=C1C[C@@H]2C[C@@]3(O)[C@H]4Cc5ccc(O)cc5[C@@]3(CCN4CC3CCOCC3)C[C@@H]2N1 [Compound 6] = 5.83
CN1C(=O)C[C@@H]2C[C@@]3(O)[C@H]4Cc5ccc(O)cc5[C@@]3(CCN4CC3CC3)C[C@@H]21 [Compound 12] = 8.66
COc1ccc2c(c1)[C@]13CCN(CC4CC4)[C@H](C2)[C@]1(O)C[C@H]1CC(=O)N(CC(C)C)[C@H]1C3 [Compound 13] = 6.65
COc1ccc2c(c1)[C@]13CCN(CC4CC4)[C@H](C2)[C@]1(O)C[C@H]1CC(=O)N(CC2CC2)[C@H]1C3 [Compound 14] = 6.84

[in] Let me know recorded pEC50 for COc1ccc2c(c1)[C@]13CCN(C)[C@H](C2)[C@]1(O)CC1=CC(=O)N[C@H]1C3 [Compound 2] , thanks.
[out] 4.91

[in] Quickly give me recorded pEC50 for COc1ccc2c(c1)[C@]13CCN(CC4CC4)[C@H](C2)[C@]1(O)C[C@H]1CC(=O)N(C)[C@H]1C3 [Compound 15]
[out] 6.06

[in] Tell us which pEC50 value is on record for O=C1C[C@@H]2C[C@@]3(O)[C@H]4Cc5ccc(O)cc5[C@@]3(CCN4CCc3ccccc3)C[C@@H]2N1 [Compound 5]
[out] 8.71

[in] Indicate the recorded pEC50 value for this compound: CCN1C(=O)C[C@@H]2C[C@@]3(O)[C@H]4Cc5ccc(OC)cc5[C@@]3(CCN4CC3CC3)C[C@@H]21 [Compound 11]
[out] 6.20

[in] Please list pEC50 recorded for the compound COc1ccc2c(c1)[C@]13CCN(CC4CC4)[C@H](C2)[C@]1(O)C[C@H]1CC(=O)N[C@H]1C3 [Compound 1]
[out] 6.09

[in] For COc1ccc2c(c1)[C@]13CCN(C)[C@H](C2)[C@]1(O)C[C@H]1CC(=O)N[C@H]1C3 [Compound 3] , write its pEC50.
[out] 5.64

[in] Tell me measured pEC50 for O=C1C[C@@H]2C[C@@]3(O)[C@H]4Cc5ccc(O)cc5[C@@]3(CCN4CCCc3ccccc3)C[C@@H]2N1 [Compound 4] please.
[out] 6.49

---

biological target: κ opioid receptor (Homo sapiens (Human), UniProt P41145); experiment: κ-opioid receptor [35S]GTPγS functional assay (U-2 OS); assay type: biochemical; settings: U2OS; GTPγS; relative to U69,593
Value type: Emax (%)
Note: unit % is implicit; provide only the numeric part.

Examples with answers:
COc1ccc2c(c1)[C@]13CCN(CC4CC4)[C@H](C2)[C@]1(O)C[C@H]1CC(=O)N(CC2CC2)[C@H]1C3 = 102
COc1ccc2c(c1)[C@]13CCN(CC4CC4)[C@H](C2)[C@]1(O)C[C@H]1CC(=O)N(C)[C@H]1C3 = 129

[in] Item COc1ccc2c(c1)[C@]13CCN(CC4CC4)[C@H](C2)[C@]1(O)CC1=CC(=O)NC1C3 (stereo partly drawn) : provide Emax
[out] 115

---

biological target: μ-opioid receptor (Homo sapiens (Human), UniProt P35372); assay: μ-opioid receptor [35S]GTPγS functional assay (HEK); type: biochemical; conditions: HEK; GTPγS; relative to DAMGO
Measured Emax, listed per entry for reference.
# unit: % | format: bare number

Use the examples below as a reference point.
COc1ccc2c(c1)[C@]13CCN(C)[C@H](C2)[C@]1(O)CC1=CC(=O)N[C@H]1C3 = 51.8
COc1ccc2c(c1)[C@]13CCN(CC4CC4)[C@H](C2)[C@]1(O)C[C@H]1CC(=O)N(CC2CC2)[C@H]1C3 = 13.2
O=C1C=C2C[C@@]3(O)[C@H]4Cc5ccc(O)cc5[C@@]3(CCN4CC3CC3)CC2N1 (stereo partly shown) = 1

Please examine the following record next.
[in] Supply measured Emax of O=C1C[C@@H]2C[C@@]3(O)[C@H]4Cc5ccc(O)cc5[C@@]3(CCN4CCc3ccccc3)C[C@@H]2N1 in your reply.
[out] 99.7

---

molecular target: κ opioid receptor (Homo sapiens (Human)); experiment: κ-opioid receptor [35S]GTPγS functional assay (U-2 OS); type: biochemical
Value type: pEC50
Lab note — pEC50 values are minus log10 of concentrations in M.

O=C1C=C2C[C@@]3(O)[C@H]4Cc5ccc(O)cc5[C@@]3(CCN4CC3CC3)CC2N1 (stereo partly shown) = 8.30
COc1ccc2c(c1)[C@]13CCN(CC4CC4)[C@H](C2)[C@]1(O)C[C@H]1CC(=O)N(CC(C)C)[C@H]1C3 = 7.71

Would you kindly look at the next entry?
[in] State pEC50 on κ opioid receptor (Homo sapiens (Human)). Entry: COc1ccc2c(c1)[C@]13CCN(CC4CC4)[C@H](C2)[C@]1(O)C[C@H]1CC(=O)N(CC2CC2)[C@H]1C3
[out] 7.78

---

Molecular target: μ-opioid receptor (Homo sapiens (Human), UniProt P35372)
Assay: μ-opioid receptor [35S]GTPγS functional assay (HEK)
Assay type: biochemical
Conditions: HEK; GTPγS; bound given in μM; read-out: μ EC50
Description: [^35S]GTPγS functional assays were conducted using freshly thawed μ-receptor membranes prepared in-house from a cell line expressing recombinant μ opioid receptor in a HEK-293, CHO or U-2 OS cell background, or purchased from a commercial source (Perkin Elmer, Shelton, Conn.; or DiscovRx, Fremont, Calif.). […] BetaScint scintillation cocktail (Perkin Elmer, Shelton, Conn.) was added (50 μl/well) and plates were counted using a Packard Top-Count for 1 min/well. […]
Value type: EC50

[in] Tell me its EC50 given O=C1C[C@@H]2C[C@@]3(O)[C@H]4Cc5ccc(O)cc5[C@@]3(CCN4CC[C@@]3(c4ccccn4)CCOC4(CCCC4)C3)C[C@@H]2N1 [Compound 7] as the entry.
[out] > 20 µM

---

Molecular target: μ-opioid receptor (Homo sapiens (Human))
Test: μ-opioid receptor [35S]GTPγS functional assay (U-2 OS)
Assay type: biochemical
Conditions: U2OS; GTPγS; relative to DAMGO
Method: [^35S]GTPγS functional assays were conducted using freshly thawed μ-receptor membranes prepared in-house from a cell line expressing recombinant μ opioid receptor in a HEK-293, CHO or U-2 OS cell background, or purchased from a commercial source (Perkin Elmer, Shelton, Conn.; or DiscovRx, Fremont, Calif.). […] BetaScint scintillation cocktail (Perkin Elmer, Shelton, Conn.) was added (50 μl/well) and plates were counted using a Packard Top-Count for 1 min/well. […]
Value type: Emax (%)
A number alone suffices; assume %.

Worked examples follow.
COc1ccc2c(c1)[C@]13CCN(CC4CC4)[C@H](C2)[C@]1(O)C[C@H]1CC(=O)N(CC2CC2)[C@H]1C3 [Compound 14] = 43.7
COc1ccc2c(c1)[C@]13CCN(C)[C@H](C2)[C@]1(O)C[C@H]1CC(=O)N[C@H]1C3 [Compound 3] = 103
O=C1C[C@@H]2C[C@@]3(O)[C@H]4Cc5ccc(O)cc5[C@@]3(CCN4CC3CC3)C[C@@H]2N1 [Compound 10] = 46

[in] For the compound CCN1C(=O)C[C@@H]2C[C@@]3(O)[C@H]4Cc5ccc(OC)cc5[C@@]3(CCN4CC3CC3)C[C@@H]21 [Compound 11] , give its reported Emax.
[out] 78

[in] For the compound COc1ccc2c(c1)[C@]13CCN(CC4CC4)[C@H](C2)[C@]1(O)C[C@H]1CC(=O)N(C)[C@H]1C3 [Compound 15] , give its measured Emax value.
[out] 75

The measured values listed here are drawn from patent US10435406B2.
